Recorded values, source patent US20210079074A1.

Target: recombinant MS4A4A soluble polypeptide JS5
Experiment: ELISA, 0.4 ug/ml antibody
Quick reference: OD450 of the listed items.

| BINDER | OD450 |
| --- | --- |
| anti-MS4A4A antibody 4A-372 (antibody, V domains shown) VH: QVQLVQSGSELKKPGASVKVSCKASGYIFTSYGLSWVRQAPGQGLEWMGWINTYSGVPTYAQGFTGRFVFSLDTSVSTAYLQISSLKAEDTAVYYCARTLGDYWGQGTLVTVSS VL: DVVMTQSPLSLPVTLGQPASISCKSSQSLLYSDGKTYLSWFQQRPGQSPRRLIYLVSRLDSGVPDRFSGSGSGTDFTLKISRVEAEDVGVYYCWQGIDFHQTFGGGTKVEIK | 0.873 |
| anti-MS4A4A antibody 4A-359 (antibody, V domains shown) VH: QVQLVQSGSELKKPGASVKVSCKASGYIFTSYGLSWVRQAPGQGLEWMGWINTYSGVPTYAQGFTGRFVFSLDTSVSTAYLQISSLKAEDTAVYYCARTLADYWGQGTLVTVSS VL: DVVMTQSPLSLPVTLGQPASISCKASQSLLYSDGKTYLSWFQQRPGQSPRRLIYLVSKLDSGVPDRFSGSGSGADFTLKISRVEAEDVGVYYCWQGIDFHQTFGGGTKVEIK | 0.892 |
| anti-MS4A4A antibody 4A-363 (antibody, V domains shown) VH: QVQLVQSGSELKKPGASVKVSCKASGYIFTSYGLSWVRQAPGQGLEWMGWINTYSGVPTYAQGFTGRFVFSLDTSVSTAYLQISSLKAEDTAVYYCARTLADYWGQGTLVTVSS VL: DVVMTQSPLSLPVTLGQPASISCKSSQSLLYSDGKTYLSWFQQRPGQSPRRLIYLVSKLSSGVPDRFSGSGSGTDFTLKISRVEAEDVGVYYCWQGIDFHQTFGGGTKVEIK | 0.833 |
| anti-MS4A4A antibody 4A-368 (antibody, V domains shown) VH: QVQLVQSGSELKKPGASVKVSCKASGYTFTSYGLSWIRQAPGQGLEWMGWINTYSGVPTYAQGFTGRFVFSLDTSVSTAYLQISSLKAEDTAVYYCARTMVDYWGQGTLVTVSS VL: DVVMTQSPLSLPVTLGQPASISCKSSQSLLYSDGKTYLSWFQQRPGQSPRRLIYLVSKLESGVPDRFSGSGSGTDFTLKISRVEAEDVGVYYCWQGIDFHQTFGGGTKVEIK | 0.901 |
